system: NOMO1; experiment: cell viability relative to DMSO control; higher = less cytotoxic; settings: HPLM + 10% dialyzed FBS; 48 h; 0.00234 µM
# cell viability per entry
Number in %, nothing else.

Record excerpt, results attached:
Lookup: What value of measured cell viability is listed for CNCC(O)c1ccc(O)cc1 (centres undefined) ?
Found: 106

Lookup: What value of measured cell viability is listed for `NC\1=N\C(=O)N(\C=C1)[C@@H]2O[C@H](CO)[C@@H](O)[C@@H]2O` ?
Found: 79.8

Lookup: What value of measured cell viability is listed for `CCN1CCN(CC1)CC(=O)NC2=CC=C(C3=C2C4=C(S3)C=CC=C4)C5=C6O\C(=C/C(=O)C6=CC=C5)N7CCOCC7` ?
Found: 121

Next:
Lookup: What value of measured cell viability is listed for `CN[C@@H]1[C@@H](O)[C@@H](O[C@@H]2[C@@H](O)[C@H](O[C@H]3O[C@H](CN)[C@@H](O)[C@H](O)[C@H]3O)[C@@H](N)C[C@H]2NC(=O)[C@@H](O)CN)OC[C@]1(C)O` ?
Found: 132

Lookup: What value of measured cell viability is listed for C[C@](Cc1c[nH]c2ccccc12)(NC(=O)OC1C2CC3CC(C2)CC1C3)C(=O)NC[C@H](NC(=O)CCC(=O)O)c1ccccc1 (some centres undefined) ?
Found: 94

Lookup: What value of measured cell viability is listed for `CC(C)OC(=O)/C1=C/N(CC(C)(C)C2=C1[NH]C3=CC=CC=C23)C(=O)C4=CC=C(F)C(=C4)F` ?
Found: 80.4

Lookup: What value of measured cell viability is listed for `CCOC(=O)[C@@H](N)Cc1ccc(-c2cc(O[C@H](c3ccc(Cl)cc3-n3ccc(C)n3)C(F)(F)F)nc(N)n2)cc1.O=C(O)CNC(=O)c1ccccc1` ?
Found: 111

Lookup: What value of measured cell viability is listed for `COC\1=C(/OC)C(=O)\C(=C(C)/C1=O)CCCCCCCCCCO` ?
Found: 132

Lookup: What value of measured cell viability is listed for `CN(C)C1CCN(C(=O)c2ccc(NC(=O)Nc3nc(N4CCOCC4)nc(N4CCOCC4)n3)cc2)CC1` ?
Found: 100

Lookup: What value of measured cell viability is listed for `O=C1c2ccccc2-[n+]2ccc3c([nH]c4ccccc43)c21` ?
Found: 114

Lookup: What value of measured cell viability is listed for `CCOC(=O)N1CCN(/[N+]([O-])=N/Oc2ccc([N+](=O)[O-])cc2C#N)CC1` ?
Found: 99.3

Lookup: What value of measured cell viability is listed for `CC[S+](=O)([O-])c1cccc(-c2cc(C(=O)NC3CCN(C)CC3)c(C)c3[nH]c4ncc(C)cc4c23)c1` ?
Found: 128

Lookup: What value of measured cell viability is listed for `C[C@@H]1COCCN1c1cc(C2([S@+](C)(=N)[O-])CC2)nc(-c2ccnc3[nH]ccc23)n1` ?
Found: 116

Lookup: What value of measured cell viability is listed for CC1CNc2c(cccc2[S+](=O)([O-])N[C@@H](CCCNC(=N)N)C(=O)N2CC[C@@H](C)C[C@@H]2C(=O)O)C1 (some centres undefined) ?
Found: 101

###

# cell viability per entry
test system: NOMO1; experiment: cell viability relative to DMSO control; higher = less cytotoxic; details: RPMI 5 mM glucose + 10% FBS; 48 h; 0.00234 µM

Record excerpt, results attached:
Lookup: Quick check: cell viability on NOMO1, item `C[C@H]1C[C@@H]2[C@H](CC[C@@]3(C)[C@H]2CC[C@]3(OC(C)=O)C(C)=O)[C@@]\4(C)CCC(=O)\C=C14` ?
Found: 103%

Lookup: Quick check: cell viability on NOMO1, item `Cn1cnc2c(F)c(Nc3ccc(Br)cc3F)c(C(=O)NOCCO)cc21` ?
Found: 80.2%

Lookup: Quick check: cell viability on NOMO1, item `Cc1onc(-c2ccccc2Cl)c1C(=O)N[C@@H]1C(=O)N2[C@@H]1SC(C)(C)[C@@H]2C(=O)[O-]` ?
Found: 119%

Next:
Lookup: Quick check: cell viability on NOMO1, item `O=c1[nH]c2ccccc2n1CCCN1CCC(n2c(=O)[nH]c3cc(Cl)ccc32)CC1` ?
Found: 146%

Lookup: Quick check: cell viability on NOMO1, item `CNc1nc(Nc2ccc(C(=O)N3CCOCC3)cc2OC)ncc1Cl` ?
Found: 121%

Lookup: Quick check: cell viability on NOMO1, item `OC[C@H]1O[C@H]([C@H](O)[C@@H]1O)N2\C=C/C(=O)NC2=O` ?
Found: 87.3%

Lookup: Quick check: cell viability on NOMO1, item COCC1(CO)C(=O)C2CCN1CC2 (stereo not drawn) ?
Found: 95.4%

Lookup: Quick check: cell viability on NOMO1, item `C[C@@]12C(=O)OC(=O)[C@@]1(C)C1CCC2O1` ?
Found: 90.8%

Entry source: the supplement of paper PMC11451515
